Target: Liver microsome
Experiment: Uncompetitive substrate inhibition in pooled human liver microsomes assessed as formation of 3-methyl-4-(2-(piperazin-1-yl)phenylthio)benzoic acid after 20 mins by Michaelis-Menten plot analysis in presence of NADPH regenerating system with NADP+
measurement kind: pKi
Scale for pKi: -log10 of concentration given in mol/L; no unit attached.

Exam item: Form: Entry = `Cc1cc(CO)ccc1Sc1ccccc1N1CCNCC1` | System = Liver microsome | pKi = ____
Marked response: 3.56

----------
Tested on: Liver microsome
Assay: Drug metabolism in pooled human liver microsomes assessed as formation of 1-(2-(2,4-dimethylphenylsulfinyl)phenyl)piperazine after 30 mins by Michaelis-Menten plot analysis in presence of NADPH regenerating system with NADP+
Format: ADME
Conditions: 0.5 h, read-out: Km(app)
measurement kind: Km

Exam item: Entry under review: Br.Cc1ccc(Sc2ccccc2N2CCNCC2)c(C)c1 [VORTIOXETINE HYDROBROMIDE] . Reported Km?
Marked response: ≥ 208 µM
